# Study system: Human Full Length PARG (Homo sapiens (Human), UniProt Q86W56)
# Sequence (Q86W56 whole entry): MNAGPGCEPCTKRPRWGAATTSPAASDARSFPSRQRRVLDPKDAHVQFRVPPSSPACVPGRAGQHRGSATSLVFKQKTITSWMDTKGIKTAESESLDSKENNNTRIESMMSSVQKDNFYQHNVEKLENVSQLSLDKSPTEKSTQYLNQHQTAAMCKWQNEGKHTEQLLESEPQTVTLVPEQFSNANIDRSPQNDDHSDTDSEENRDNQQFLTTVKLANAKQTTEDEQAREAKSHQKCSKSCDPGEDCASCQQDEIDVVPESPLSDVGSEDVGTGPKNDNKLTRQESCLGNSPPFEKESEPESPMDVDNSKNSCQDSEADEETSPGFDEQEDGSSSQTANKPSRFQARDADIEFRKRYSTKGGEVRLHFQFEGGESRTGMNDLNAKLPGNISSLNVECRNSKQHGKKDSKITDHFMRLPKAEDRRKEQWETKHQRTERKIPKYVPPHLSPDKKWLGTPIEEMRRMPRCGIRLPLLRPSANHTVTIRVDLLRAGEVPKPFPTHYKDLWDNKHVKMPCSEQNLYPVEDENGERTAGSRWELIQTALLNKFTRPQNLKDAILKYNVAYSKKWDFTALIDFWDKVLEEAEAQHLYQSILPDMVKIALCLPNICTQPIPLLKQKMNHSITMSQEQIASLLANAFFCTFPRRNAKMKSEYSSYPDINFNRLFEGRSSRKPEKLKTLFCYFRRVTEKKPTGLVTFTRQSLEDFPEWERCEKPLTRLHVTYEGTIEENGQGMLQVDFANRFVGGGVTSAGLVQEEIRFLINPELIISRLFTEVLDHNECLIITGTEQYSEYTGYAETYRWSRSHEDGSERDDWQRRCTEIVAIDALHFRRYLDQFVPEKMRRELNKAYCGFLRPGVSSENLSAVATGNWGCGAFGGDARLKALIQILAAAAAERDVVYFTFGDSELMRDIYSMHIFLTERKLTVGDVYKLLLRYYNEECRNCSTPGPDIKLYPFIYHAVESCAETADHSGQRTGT
# Experiment notes: PARG enzyme assay (TR-FRET)
# Type: biochemical
# Conditions: read-out: PARG Biochem IC50 Geomean
Entries and their IC50 values follow.
Respond with the bare value in nM.

Before answering, review these 6 worked examples.
Cn1cc(Cn2c(=O)c3cc(S(=O)(=O)NC4(C#N)CC4)ccc3n(CC3CCOC3)c2=O)cn1 (stereo not shown)
96
CC1(NS(=O)(=O)c2ccc3[nH]c(=O)n(CC(N)=O)c(=O)c3c2)CC1
7470
Cc1nc(C)c(Cn2c(=O)n(Cc3cnn(C)c3)c(=O)c3cc(S(=O)(=O)NC4(C)CC4)c(F)cc32)s1
11
Cc1cc(Cn2c(=O)n(C)c(=O)c3cc(S(=O)(=O)NC4(C)CC4)c(F)cc32)n(C)n1
473
CC1(NS(=O)(=O)c2ccc3c(c2)c(=O)n(CC#N)c(=O)n3Cc2ccc(F)cc2)CC1
441
Cc1cc(Cn2c(=O)c3cc(S(=O)(=O)NC4(C)CC4)ccc3n(Cc3cc(C(F)(F)F)nn3C)c2=O)on1
127

Query :: State IC50 (Human Full Length PARG (Homo sapiens (Human), UniProt Q86W56)) of Cc1cc(Cn2c(=O)c3cc(S(=O)(=O)NC4(C)CC4)ccc3n(C)c2=O)on1 .
Result :: 426
